All values here come from PubChem BioAssay (NCI).

Please provide measured TGI for the entries that follow.
System: OVCAR-3 ovarian
Protocol: NCI tumour cell line growth inhibition, 48 h

>>> recorded_value("O=[N+]([O-])c1ccc(OC2CC3C4C=CC3C2C4)c([N+](=O)[O-])c1 (stereo not given)")
"> 100 µM"

Here are 7 molecules. What values of TGI were reported for them?
1. Cc1nc2ccc(C(F)(F)F)cc2nc1NCc1ccc(Cl)c(Cl)c1
2. COc1ncnc(NS(=O)(=O)c2ccc(N=C3C(=O)N(CN4CCN(c5c(F)cc6c(=O)c(C(=O)O)cn(C7CC7)c6c5OC)CC4C)c4ccc(Br)cc43)cc2)c1OC (stereo not given)
3. Fc1ccc(N2C(=S)SC(=Nc3ccccc3)C2=Nc2ccccc2)cc1
4. NS(=O)(=O)c1ccc(-c2cc3ccncc3cc2OCc2ccccc2)cc1
5. O=[N+]([O-])c1ccc(C(=S)Nc2ccccc2)o1
6. Clc1cc(Cl)cc(N=C/C=C/Nc2cc(Cl)cc(Cl)c2)c1
7. COc1cc(O)c2c(=O)c(O)c(-c3ccc(O)c(OC)c3)oc2c1

1: 26.3 µM; 2: 40.7 µM; 3: > 100 µM; 4: > 25 µM; 5: 6.38 µM; 6: 27.7 µM; 7: > 100 µM

Here are 2 molecules. What values of TGI were reported for them?
1. Nc1nc(Nc2ccccc2)c2[nH]cnc2n1
2. CN(C)C(=NCc1ccccc1)NC#N

["> 100 µM", "> 100 µM"]

---

Please provide measured TGI for the entries that follow.
System: SNB-75 CNS
Protocol: NCI tumour cell line growth inhibition, 48 h
Give bare numbers, in µM.

// solved cases for TGI follow
>>> recorded_value("CC1OC(OC2C(O)CC(OC3C(O)CC(OC4CCC5(C)C(CCC6C5CC(O)C5(C)C(C7=CC(=O)OC7)CCC65O)C4)OC3C)OC2C)CC(O)C1O (configuration not stated)")
0.241
>>> recorded_value("Cc1ccc(-c2nc([P+](c3ccccc3)(c3ccccc3)c3ccccc3)c(S(=O)(=O)c3ccc(C)cc3)o2)cc1")
4.41

Then this compound:
Can you look up the measured TGI of CC1(c2ccccc2Cl)C(C#N)C(=O)NC(=O)C1C#N (configuration not stated) for me? 75.4

---

Test system: OVCAR-4 ovarian
Protocol: NCI tumour cell line growth inhibition, 48 h; in the data active = GI50 below about 0.43 µM; inactive = the rest
A correct response names exactly one class from active, inactive

>>> discrete_label("c1ccc(-c2nc(N3CCNCC3)c3oc(-c4ccccc4)nc3n2)cc1")
"inactive"

// param item: COc1cc(/C=C/C(=O)c2cccc(-n3cc(-c4ccc(Cl)cc4)[nH]c3=O)c2)cc(OC)c1OC ; yields the recorded call inactive

// param item: N#CC1=C(/N=C/c2ccccc2)Oc2c(ccc3ccccc23)C1c1ccccc1 (centres undefined) ; yields the recorded call inactive

// param item: N#CCN1CCn2c1nsc2=S ; yields the recorded call inactive

---

System: SNB-19 CNS
Protocol: NCI tumour cell line growth inhibition, 48 h
Class definitions on TGI: 1: < 5 µM; 2: ≥ 5 µM and < 30 µM; 3: ≥ 30 µM

>>> discrete_label("CC1(c2nc3ccccc3[nH]2)CCC(C(=O)O)C(C)(C)O1 (stereo not given)")
3
>>> discrete_label("CCC(=O)C(CCN1CCC2(CCCc3ccccc32)CC1)(c1ccccc1)c1ccccc1")
2

GET /class?item= COc1cc2nc(-c3cc(F)ccc3O)nc(N[C@@H]3CNC[C@H]3C(C)(C)O)c2cc1OC 1

GET /class?item= c1ccc(-c2nc(N3CCNCC3)c3oc(-c4ccccc4)nc3n2)cc1 1

GET /class?item= Cc1cc(N(CCCNc2ccnc3cc(Cl)ccc23)Cc2ccco2)nc(N2CCN(C)CC2)n1 2

GET /class?item= O=C(c1ccccc1)N(C(=O)c1ccccc1)c1nc(SCc2ccccc2)ns1 3

GET /class?item= CSc1nc2sc3c(c2c(=O)n1-c1ccc(C(C)C)cc1)CCC(=O)C3 1

GET /class?item= Cc1nc2ccc(C(F)(F)F)cc2nc1NCc1ccc(Cl)c(Cl)c1 3

GET /class?item= O=C(CC1(O)C(=O)N(Cc2ccccc2)c2ccccc21)c1ccc(C(=O)NCC2CCC3(CC2)OOC2(CCCCC2)OO3)cc1 (stereo not given) 3

GET /class?item= O=[N+]([O-])c1ccc(OC2CC3C4C=CC3C2C4)c([N+](=O)[O-])c1 (stereo not given) 3

GET /class?item= CC(C)(C)C1=CC(C)(n2[nH]c(=O)n(-c3ccccc3)c2=O)C=C(C(C)(C)C)C1=O 3

GET /class?item= CN(CCNCc1ccccn1)CCNCc1ccccn1 2

GET /class?item= [N-]=[N+]=NI1OC(=O)c2ccccc21 3

GET /class?item= C=C(C)C1Cc2c(c3ccccc3n(C)c2=O)O1 (stereo not given) 3

GET /class?item= CCCCc1ccc(-n2sc3ncc(C)cc3c2=O)cc1 3

---

System: SF-268 CNS
Protocol: NCI tumour cell line growth inhibition, 48 h; in the data active = GI50 below about 0.43 µM; inactive = the rest
A correct response names exactly one class from T for active, F for inactive

Solved entries:
>>> discrete_label("COc1cc2nc(-c3cc(F)ccc3O)nc(N[C@@H]3CNC[C@H]3C(C)(C)O)c2cc1OC")
"F"
>>> discrete_label("C#CCNC(=O)[C@H](CC)[C@H]1CC[C@H](C)[C@H]([C@@H](C)[C@H](O)[C@H](C)C(=O)[C@H](CC)C2O[C@]3(C=CC(=O)[C@]4(CC[C@@](C)([C@H]5CC[C@](O)(CC)[C@H](C)O5)O4)O3)[C@H](C)C[C@@H]2C)O1 (some centres not stated)")
"F"
>>> discrete_label("CCN(CC)CCCCCCNc1cc(OC)cc2cccnc12")
"F"
>>> discrete_label("CC1OC(OC2C(O)CC(OC3C(O)CC(OC4CCC5(C)C(CCC6C5CC(O)C5(C)C(C7=CC(=O)OC7)CCC65O)C4)OC3C)OC2C)CC(O)C1O (configuration not stated)")
"T"

// param item: CCC1(O)C(=O)OCc2c1cc1n(c2=O)Cc2cc3c(NC(=O)CN)cccc3nc2-1 (configuration not stated) ; yields the recorded call T

// param item: O=[N+]([O-])c1ccc(OC2CC3C4C=CC3C2C4)c([N+](=O)[O-])c1 (configuration not stated) ; yields the recorded call F

// param item: CC1(C)CC(=O)C2=C(C1)OC(N)=C(c1nc(-c3ccccc3)cs1)C2c1ccc(Br)cc1 (configuration not stated) ; yields the recorded call F

---

Please provide measured TGI for the entries that follow.
Tested on: UACC-257 melanoma
Protocol: NCI tumour cell line growth inhibition, 48 h

// solved cases for TGI follow
>>> recorded_value("O=[N+]([O-])c1cccc2nc3ccccc3c(NCCCNc3c4ccccc4nc4cccc([N+](=O)[O-])c34)c12")
"0.329 µM"
>>> recorded_value("Nc1ccc2c(c1)nc1n2C(c2c(F)cccc2F)SC1 (stereo not given)")
"> 100 µM"
>>> recorded_value("[N-]=[N+]=NI1OC(=O)c2ccccc21")
"> 100 µM"
>>> recorded_value("N#Cc1nc(-c2ccco2)oc1N")
"> 10 µM"

Then this compound:
Can you look up the measured TGI of Cc1ccc(S(=O)(=O)N/N=C(/CC(=O)c2c(C)n([O-])c3ccccc3[n+]2=O)C(=O)Nc2ccccc2C)cc1 for me? > 100 µM

---

System: OVCAR-5 ovarian
Protocol: NCI tumour cell line growth inhibition, 48 h; in the data active = GI50 below about 0.43 µM; inactive = the rest
A correct response names exactly one class from active, inactive

Solved entries:
>>> discrete_label("CC1OC(OC2C(O)CC(OC3C(O)CC(OC4CCC5(C)C(CCC6C5CC(O)C5(C)C(C7=CC(=O)OC7)CCC65O)C4)OC3C)OC2C)CC(O)C1O (configuration not stated)")
"active"
>>> discrete_label("COc1ccc(N(CC(=O)NCCC[Te]c2ccccc2)C(=O)CNC(=O)OC(C)(C)C)cc1")
"inactive"
>>> discrete_label("C[C@]12CC[C@@H]3c4cc(OC(F)F)c(OS(N)(=O)=O)cc4CC[C@H]3[C@@H]1CC[C@@H]2O")
"inactive"
>>> discrete_label("c1ccc2cc(-c3n(Cc4ccc5ccccc5n4)c4ccccc4[n+]3Cc3ccc4ccccc4n3)ccc2c1")
"active"

// param item: C#CCNC(=O)[C@H](CC)[C@H]1CC[C@H](C)[C@H]([C@@H](C)[C@H](O)[C@H](C)C(=O)[C@H](CC)C2O[C@]3(C=CC(=O)[C@]4(CC[C@@](C)([C@H]5CC[C@](O)(CC)[C@H](C)O5)O4)O3)[C@H](C)C[C@@H]2C)O1 (some centres not stated) ; yields the recorded call inactive

// param item: O=[N+]([O-])c1ccc(OC2CC3C4C=CC3C2C4)c([N+](=O)[O-])c1 (configuration not stated) ; yields the recorded call inactive

---

Please provide measured TGI for the entries that follow.
Test system: NCI-H23 lung
Protocol: NCI tumour cell line growth inhibition, 48 h
One number for each entry, in µM.

>>> recorded_value("O=C(/C=C/c1ccc(Oc2cc(C(=O)/C=C/c3ccc(O)cc3)c(O)cc2O)cc1)c1ccc(O)cc1O")
28.6

Then this molecule:
Can you look up the measured TGI of Cc1cc(C)nc(NS(=O)(=O)c2ccc(NC(=O)c3cccc4c(Nc5ccc(S(=O)(=O)Nc6cc(C)on6)cc5)c5ccccc5nc34)cc2)n1 for me? 42.6
